molecular target: human MRGPRD (Homo sapiens, UniProt Q8TDS7); test: MRGPRD antagonist activity, IP-One HTRF assay in CHO cells stably expressing human MRGPRD (versus 100 μM β-Alanine agonist)
Sequence (Q8TDS7 whole entry): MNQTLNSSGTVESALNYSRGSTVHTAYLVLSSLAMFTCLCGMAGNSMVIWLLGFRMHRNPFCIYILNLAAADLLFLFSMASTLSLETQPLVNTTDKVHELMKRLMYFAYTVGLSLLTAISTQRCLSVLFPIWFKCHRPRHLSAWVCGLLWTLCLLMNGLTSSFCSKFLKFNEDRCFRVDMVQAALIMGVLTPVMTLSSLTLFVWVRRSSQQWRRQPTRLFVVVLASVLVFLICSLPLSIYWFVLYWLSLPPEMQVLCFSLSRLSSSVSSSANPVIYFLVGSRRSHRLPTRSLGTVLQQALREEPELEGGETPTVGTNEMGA
pIC50: −log10 of the molar value.
Would you kindly list pIC50 for each of these compounds?

Note down pIC50 recorded for Cc1cc(-c2ccc(-n3nnc(C(=O)Nc4ccncc4)c3C3CC3)cc2)ccc1C#N 6.30 to 7.00

Note down pIC50 recorded for Cc1noc(C)c1-c1ccc(-n2nnc(C(=O)Nc3ccncc3)c2C2CC2)cc1 6.30 to 7.00

Note down pIC50 recorded for Cc1cc(NC(=O)c2nnn(-c3ccc(-c4ccc(F)nc4)cc3)c2C2CC2)ccn1 6.30 to 7.00

Note down pIC50 recorded for Cc1ccc(CNC(=O)c2nnn(-c3ccc(-c4c(C)nn(C)c4C)cn3)c2C2CC2)cn1 6.00 to 6.30

Note down pIC50 recorded for Cc1nn(C2CCC2)c(C)c1-c1cccc(-n2nnc(C(=O)Nc3ccncc3)c2C2CC2)c1 5.52 to 6.00

Note down pIC50 recorded for Cc1nn(C)c(C)c1-c1ccc(-n2nnc(C(=O)Nc3ccncc3)c2C2CC2)cc1 6.30 to 7.00

Note down pIC50 recorded for O=C(Nc1ccncc1)c1nnn(-c2ccc(-c3ccc4c(c3)CCC4)cc2)c1C1CC1 6.30 to 7.00

Note down pIC50 recorded for Cc1nn2cccnc2c1-c1ccc(-n2nnc(C(=O)Nc3ccc(NS(C)(=O)=O)cc3)c2C2CC2)cc1 5.52 to 6.00

Note down pIC50 recorded for Cc1ccc(CNC(=O)c2nnn(-c3ccc(-c4ccccc4)cc3)c2C2CC2)cn1 6.00 to 6.30

Note down pIC50 recorded for O=C(Nc1ccncc1)c1nnn(-c2ccc(-c3cnn(C(F)F)c3)cc2)c1C1CC1 6.00 to 6.30

Note down pIC50 recorded for Cc1nnc(-c2ccc(-n3nnc(C(=O)Nc4ccncc4)c3C3CC3)cc2)o1 < 5.52

Note down pIC50 recorded for O=C(Nc1ccncc1)c1nnn(-c2ccc(-c3ccc[nH]3)cc2)c1C1CC1 6.30 to 7.00

Note down pIC50 recorded for Cc1cc(NC(=O)c2nnn(-c3ccc(-c4ccc(C#N)cc4)cn3)c2C2CC2)ccn1 6.30 to 7.00

Note down pIC50 recorded for Cc1nn(C)c(C)c1-c1ccc(-n2nnc(C(=O)Nc3ccncc3)c2C2CC2)c(C(F)(F)F)c1 5.52 to 6.00

Note down pIC50 recorded for Cc1cc(NC(=O)c2nnn(-c3ccc(-c4ccc(C#N)cc4C)cc3)c2C2CC2)ccn1 6.30 to 7.00

Note down pIC50 recorded for Cc1nn(-c2ccccc2)c(C)c1-c1cccc(-n2nnc(C(=O)Nc3ccncc3)c2C2CC2)c1 6.00 to 6.30
